# SYSTEM: T1, RTL1000 (two-domain β1α1 HLA-DR2 with covalently linked human MOG-35-55 peptide) (human)
# T1 construct: also called RTL1000-BirA; DR2/MOG-35-55
# T1 chain: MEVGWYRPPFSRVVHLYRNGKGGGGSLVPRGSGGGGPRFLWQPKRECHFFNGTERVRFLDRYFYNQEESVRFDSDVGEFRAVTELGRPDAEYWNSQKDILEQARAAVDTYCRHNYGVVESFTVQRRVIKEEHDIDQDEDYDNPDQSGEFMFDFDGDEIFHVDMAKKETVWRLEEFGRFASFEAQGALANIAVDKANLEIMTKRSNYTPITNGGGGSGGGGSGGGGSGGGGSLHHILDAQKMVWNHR
# EXPERIMENT: SPR (ProteOn XPR36), Fab captured by immobilised anti-Fab, RTL1000 injected at 62.5-1000 nM
MEASUREMENT_TYPE: Kd (nM)
Report as a plain number; the unit nM is understood.

Solved entries (count: 3):
Fab 3A3 (Fab, V domains shown, also called 3A3 Fab) VH: QVQLQESGGGLVKPGGSLRLSCAASGFTFSSYSMNWVRQAPGKGLEWVSSISSSSSYIYYADSVKGRFTISRDNAKNSLYLQMNSLRAEDTAVYYCARVRGHRYYYDSSGYYSSDYYYYYGMDVWGQGTTVTVSS VL: DIQLTQSPSSVSASVGDRVTITCRASQVISSWLAWYQQKPGKAPKLLISTASSLQSGVPPRFSGSGSGTDFTLTITSLQPEDFATYYCQQANSFPLTFGQGTKVEIKR
58
Fab 1F11 (Fab, V domains shown, also called 1F11 Fab) VH: QLQLQESGPGLVKPSETLSLTCTVSGVSISSRSGHWGWVRQPPGKGLEWIGSISYSGSTYYNPSLKSRVTISVDTSKNQLSLKLSSVTAADTAVYYCARESHPAAALVGWGQGTLVTVSS VL: ETTLTQSPGTLSLSPGERATLSCRASQSIINSHLAWYQQKPGQAPRLLIYGASSRATGIPDRFSGGGSGTDFTLTITRLETEDFALYFCQQYGTSPLTFGGGTRVETKR
60
Fab 2E4 (Fab, V domains shown, also called 2E4 Fab; anti-RTL1000 TCRL Fab) VH: EVQLVESGAEVKKPGASVKVSCKASGYTFTSYYMHWVRQAPGQGLEWMGIINPSGGSTSYAQKFQGRVTMTRDTSTSTVYMELSSLRSEDTAVYYCAREGDNYYGDAFDIWGQGTMVTVSS VL: EIVLTQSPATLSLSPGERATLSCRASQSVSSYLAWYQQKPGQAPRLLIYDASNRATGIPARFSGSGSGTDFTLTISSLEPEDFAVYYCQQRSNWPPSYTFGQGTKLEIKR
33

In the following, a different binder is considered.
Q: Name the recorded Kd for Fab 2C3 (Fab, V domains shown, also called 2C3 Fab) VH: QVQLVQSGGGVVQPGRSLRLSCAASGFTFSSYAMHWVRQAPGKGLEWVAVISYDGSNKYYADSVKGRFTISRDNSKNTLYLQMNSLRAEDTAVYYCARDRSFWSGYYIINYYYYGMDVWGQGTTVTVSS VL: DVVMTQSPLSLPVTPGEPASISCRSSQSLLHSDGNNYLDWYLQKPGQSPQLLIYLGSNRASGVPDRFSGSGSGTDFTLKISRVEPEDVGVYYCMQALHIPLTFGQGTRLEIKR .
Ans: 153
